# target under test: SdiA (Salmonella enterica subsp. enterica serovar Typhimurium, UniProt O66040)
# Sequence (O66040 entry or part of it): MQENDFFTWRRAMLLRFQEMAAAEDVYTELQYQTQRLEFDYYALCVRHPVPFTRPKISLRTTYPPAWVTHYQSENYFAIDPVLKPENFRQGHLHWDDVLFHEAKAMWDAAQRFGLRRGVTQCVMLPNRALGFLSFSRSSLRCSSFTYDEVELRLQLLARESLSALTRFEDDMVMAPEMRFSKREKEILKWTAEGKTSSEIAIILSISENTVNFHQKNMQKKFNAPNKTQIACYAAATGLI
# method summary: S. Typhimurium-pJNS25 SdiA reporter, competitive antagonism against 10 nM L-OOHL
# Assay type: cell-based
# run conditions: against 10 nM L-OOHL (EC90)
pIC50: −log10 of the molar value.

molecule	pIC50
CCCCCCCCCCCCCCCC(=O)N[C@H]1CCOC1=O [A6]	5.76
O=C(CCCCCCCCCN=C=S)CC(=O)N[C@H]1CCOC1=O [compound 11, reference compound]	6.49
CCOC(=O)CNC(=O)Cc1cccc([N+](=O)[O-])c1 [F40]	4.56
O=C(CCCOc1cccc(Br)c1)N[C@H]1CCSC1=O [compound 16, reference compound]	4.35
O=C(CCc1cccc(I)c1)N[C@H]1CCOC1=O [E33]	5.02
O=C(Cc1ccc(-c2ccccc2)cc1)N[C@H]1CCSC1=O [F13]	5.63
CCCCCCCCCCOc1ccc(C(=O)N[C@H]2CCOC2=O)cc1 [R7]	5.51
CCOC(=O)CNC(=O)Cc1cccc(I)c1 [F45]	4.55
